measuredTarget: p38α (Homo sapiens, UniProt Q16539)
Construct: p38 MAP Kinases are recombinant human full-length proteins with an amino-terminal GST fusion; GST (N)
Sequence (Q16539 whole entry, the tested form may be a part): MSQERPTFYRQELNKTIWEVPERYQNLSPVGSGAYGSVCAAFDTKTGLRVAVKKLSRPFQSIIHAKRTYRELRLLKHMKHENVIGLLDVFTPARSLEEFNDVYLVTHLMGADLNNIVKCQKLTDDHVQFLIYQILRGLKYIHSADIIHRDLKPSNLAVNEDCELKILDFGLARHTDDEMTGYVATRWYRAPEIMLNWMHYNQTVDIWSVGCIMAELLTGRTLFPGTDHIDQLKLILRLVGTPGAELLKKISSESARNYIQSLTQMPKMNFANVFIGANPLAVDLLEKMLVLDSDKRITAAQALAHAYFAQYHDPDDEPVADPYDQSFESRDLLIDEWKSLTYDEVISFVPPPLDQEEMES
methodSummary: p38 MAP Kinase assay, ATF2 phosphorylation (ELISA)
conditions: 40 μM ATP
readoutKind: IC50 (nM)

I. CN(C)CC(C)(C)CNc1nccc(-c2c(-c3cccc(C(F)(F)F)c3)nc3occn23)n1
II. COC(=O)C(Cc1ccccc1)Nc1nccc(-c2c(-c3ccc(F)cc3)nc3sccn23)n1 (centres unmarked)
III. CCC[C@H](CO)Nc1nccc(-c2c(-c3ccc(F)cc3)nc3occn23)n1
IV. c1ccc(-c2nc3sccn3c2-c2ccnc(NCc3cccs3)n2)cc1
V. CC[C@H](CO)Nc1nccc(-c2c(-c3ccc(F)cc3)nc3occn23)n1
Task item: Arrange these molecules by their IC50, starting with the largest number. Provide your answer as the labels ordered per the instruction.
Reply: II, I, V, IV, III
(II: 267 nM, I: 43.3 nM, V: 20.5 nM, IV: 10.2 nM, III: 5.2 nM)

---

measuredTarget: Syk (Homo sapiens)
Construct: purchased Upstate (Charlottesville, Va.)
methodSummary: Broad selectivity panel, 32P incorporation
Type: biochemical
conditions: 0.1 μM compound, 40 μM ATP; read-out: Percent inhibition Syk
readoutKind: inhibition at 0.1 µM (%)

Here is how some molecules turned out for inhibition at 0.1 µM.
Fc1ccc(-c2nc3occn3c2-c2ccnc(N[C@H]3CN4CCC3CC4)n2)cc1 :: 17
Fc1ccc(-c2nc3occn3c2-c2ccnc(N[C@@H]3CN4CCC3CC4)n2)cc1 :: -5
CN1[C@@H]2CC[C@H]1C[C@@H](Nc1nccc(-c3c(-c4ccc(F)cc4)nc4occn34)n1)C2 :: 17

1. Fc1ccc(-c2nc3occn3c2-c2ccnc(NC3CCNCC3)n2)cc1
2. CS(=O)(=O)N1CCC(Nc2nccc(-c3c(-c4ccc(F)cc4)nc4occn34)n2)CC1
3. CN(C)CC(C)(C)CNc1nccc(-c2c(-c3ccc(F)cc3)nc3occn23)n1
Task item: Put these in order: smallest inhibition at 0.1 µM first, largest last. Provide your answer as the labels ordered per the instruction.
Reply: 2, 1, 3
(2: 3%, 1: 5%, 3: 35%)

---

measuredTarget: MAPK2 (Homo sapiens, UniProt P28482)
Construct: purchased Upstate (Charlottesville, Va.)
Sequence (P28482 whole entry): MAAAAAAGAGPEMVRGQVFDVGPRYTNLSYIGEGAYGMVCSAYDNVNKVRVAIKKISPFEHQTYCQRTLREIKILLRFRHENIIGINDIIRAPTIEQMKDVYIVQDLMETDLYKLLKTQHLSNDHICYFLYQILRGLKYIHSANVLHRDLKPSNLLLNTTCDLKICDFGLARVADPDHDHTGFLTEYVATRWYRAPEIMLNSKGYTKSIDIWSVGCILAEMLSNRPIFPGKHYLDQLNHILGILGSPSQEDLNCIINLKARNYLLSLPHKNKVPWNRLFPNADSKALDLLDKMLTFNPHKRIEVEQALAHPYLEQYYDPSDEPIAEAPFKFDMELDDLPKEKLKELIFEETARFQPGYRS
methodSummary: Broad selectivity panel, 32P incorporation
Assay type: biochemical
conditions: 1 μM compound, 40 μM ATP; read-out: Percent inhibition MAPK2
readoutKind: inhibition at 1 µM (%)

Here is how some molecules turned out for inhibition at 1 µM.
Fc1ccc(-c2nc3occn3c2-c2ccnc(N[C@@H]3CN4CCC3CC4)n2)cc1 :: 18
CN1[C@@H]2CC[C@H]1C[C@@H](Nc1nccc(-c3c(-c4ccc(F)cc4)nc4occn34)n1)C2 :: 23
CN(C)CC(C)(C)CNc1nccc(-c2c(-c3ccc(F)cc3)nc3occn23)n1 :: 7
Fc1ccc(-c2nc3occn3c2-c2ccnc(N[C@H]3CN4CCC3CC4)n2)cc1 :: 14
CS(=O)(=O)N1CCC(Nc2nccc(-c3c(-c4ccc(F)cc4)nc4occn34)n2)CC1 :: 43

a. CC(=O)N1CCC(Nc2nccc(-c3c(-c4ccc(F)cc4)nc4occn34)n2)CC1
b. Fc1ccc(-c2nc3occn3c2-c2ccnc(NC3CCNCC3)n2)cc1
Task item: Choose between a and b : whose measured inhibition at 1 µM value is numerically larger? Indicate your choice by writing its label.
Reply: a
(a: 42%, b: 9%)

These data points were gathered from patent US20070270418A1.
